# Target Or Test System: High affinity nerve growth factor receptor (Homo sapiens, UniProt P04629)
# Assay: Inhibition of TRKA in human KM-12-LUC cells assessed as reduction in AKT phosphorylation at S473 residue after 2 hrs by Western blot analysis
# Assay type: cell-based, KM12-Luc
# Sequence (P04629 whole entry, the tested form may be a part): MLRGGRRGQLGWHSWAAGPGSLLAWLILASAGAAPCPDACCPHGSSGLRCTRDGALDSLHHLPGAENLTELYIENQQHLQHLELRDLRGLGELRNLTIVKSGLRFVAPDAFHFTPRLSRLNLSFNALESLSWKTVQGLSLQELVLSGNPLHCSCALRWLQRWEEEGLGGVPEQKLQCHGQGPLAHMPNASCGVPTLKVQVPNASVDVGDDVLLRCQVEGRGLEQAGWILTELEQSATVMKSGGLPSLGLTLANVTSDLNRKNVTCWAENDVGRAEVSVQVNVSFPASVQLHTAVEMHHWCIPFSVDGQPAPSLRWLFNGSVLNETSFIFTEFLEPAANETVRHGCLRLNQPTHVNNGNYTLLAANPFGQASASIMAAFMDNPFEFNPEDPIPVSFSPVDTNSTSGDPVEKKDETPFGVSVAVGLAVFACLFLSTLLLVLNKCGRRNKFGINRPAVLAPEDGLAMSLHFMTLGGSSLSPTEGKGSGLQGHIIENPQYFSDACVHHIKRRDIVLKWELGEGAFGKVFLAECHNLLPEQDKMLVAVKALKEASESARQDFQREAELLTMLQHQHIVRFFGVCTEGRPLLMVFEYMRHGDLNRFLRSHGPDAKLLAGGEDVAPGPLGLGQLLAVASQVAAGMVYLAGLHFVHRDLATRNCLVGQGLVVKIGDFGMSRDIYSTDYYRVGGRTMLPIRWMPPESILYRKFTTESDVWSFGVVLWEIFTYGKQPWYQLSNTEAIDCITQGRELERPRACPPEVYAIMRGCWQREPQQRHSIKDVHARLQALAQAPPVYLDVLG
Measured Property: EC50

Provide EC50, tested on High affinity nerve growth factor receptor (Homo sapiens, UniProt P04629), for "Cc1nc(NC(=O)CN2CCN(C)CC2)sc1-c1ccc2c(/C=C/c3ccccn3)n[nH]c2c1" . < 30 nM

###

# Assay: Inhibition of LMNA fused TRKA V573M mutant (unknown origin) transfected in mouse BaF3 cells assessed as reduction in phosphorylation at Y490 residue after 2 hrs by Western blot analysis
# Protocol Conditions: Homo sapiens, BaF3, 2 h
Measured Property: pEC50
One number for each entry, as −log10 of the molar value.

Report measured pEC50; entry is "Cc1nc(NC(=O)CN2CCN(C)CC2)sc1-c1ccc2c(/C=C/c3ccccn3)n[nH]c2c1" 7.89

###

# Target Or Test System: VEGFR2 (vascular endothelial growth factor receptor 2), wild type, TEL fusion (Homo sapiens)
# Sequence (P35968 whole entry, the tested form may be a part): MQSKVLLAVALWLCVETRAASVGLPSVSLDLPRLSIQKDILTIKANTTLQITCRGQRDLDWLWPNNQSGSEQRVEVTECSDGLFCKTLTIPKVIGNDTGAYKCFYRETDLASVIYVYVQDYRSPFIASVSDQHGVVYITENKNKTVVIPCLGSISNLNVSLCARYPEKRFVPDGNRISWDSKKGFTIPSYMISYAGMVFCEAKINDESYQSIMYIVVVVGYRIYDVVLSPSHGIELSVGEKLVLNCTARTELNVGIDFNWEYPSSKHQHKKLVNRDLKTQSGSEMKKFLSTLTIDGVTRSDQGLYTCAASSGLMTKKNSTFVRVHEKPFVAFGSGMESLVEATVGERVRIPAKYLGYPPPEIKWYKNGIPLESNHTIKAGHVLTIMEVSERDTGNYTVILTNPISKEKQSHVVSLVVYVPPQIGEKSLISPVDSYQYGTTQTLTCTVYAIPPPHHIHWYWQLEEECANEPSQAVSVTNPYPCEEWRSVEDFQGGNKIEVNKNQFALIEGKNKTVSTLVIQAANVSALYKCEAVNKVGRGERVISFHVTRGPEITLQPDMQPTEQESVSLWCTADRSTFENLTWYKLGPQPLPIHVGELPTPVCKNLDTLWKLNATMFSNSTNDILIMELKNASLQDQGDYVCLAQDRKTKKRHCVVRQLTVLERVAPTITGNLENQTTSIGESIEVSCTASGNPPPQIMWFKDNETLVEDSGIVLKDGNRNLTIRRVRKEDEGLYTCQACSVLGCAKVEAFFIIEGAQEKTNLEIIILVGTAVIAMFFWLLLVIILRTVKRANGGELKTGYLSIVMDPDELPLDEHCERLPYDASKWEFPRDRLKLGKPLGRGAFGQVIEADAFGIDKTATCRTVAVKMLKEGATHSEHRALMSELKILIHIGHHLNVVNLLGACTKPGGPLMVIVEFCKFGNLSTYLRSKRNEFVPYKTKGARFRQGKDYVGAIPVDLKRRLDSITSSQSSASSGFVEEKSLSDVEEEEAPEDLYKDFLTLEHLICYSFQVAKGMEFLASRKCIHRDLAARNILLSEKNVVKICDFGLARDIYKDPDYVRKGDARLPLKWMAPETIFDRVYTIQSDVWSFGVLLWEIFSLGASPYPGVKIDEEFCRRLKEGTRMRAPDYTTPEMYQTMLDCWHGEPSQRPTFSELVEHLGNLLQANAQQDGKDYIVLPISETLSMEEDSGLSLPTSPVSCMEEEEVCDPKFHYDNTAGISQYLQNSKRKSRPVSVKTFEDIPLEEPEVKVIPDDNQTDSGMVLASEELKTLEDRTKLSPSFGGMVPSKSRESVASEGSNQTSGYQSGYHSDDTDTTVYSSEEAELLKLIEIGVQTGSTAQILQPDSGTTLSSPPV
# Assay: Inhibition of wild type TEL fused VEGFR2 (unknown origin) transfected in mouse BAF3 cells assessed as growth inhibition after 72 hrs by CCK8 assay
# Format: cell-based
# Protocol Conditions: mouse BaF3 cells transfected with wild type TEL-fused VEGFR2
Please respond with reported log10 GI50 at 72 h for every item in the list.
Plainly stated, the numbers are log10 of GI50 at 72 h given in µM.

Cc1nc(NC(=O)CC2CCCNC2)sc1-c1ccc2c(/C=C/c3ccccn3)n[nH]c2c1 (stereo not drawn)	0.29
CN1CCN(Cc2ccc(C(=O)Nc3cccc(Sc4ccc5c(/C=C/c6ccccn6)n[nH]c5c4)c3)cc2C(F)(F)F)CC1	-1.89
CN1CCN(Cc2ccc(NC(=O)CCSc3ccc4c(-c5ccncc5)n[nH]c4c3)cc2C(F)(F)F)CC1	-3.00
CN1CCN(Cc2ccc(NC(=O)CCSc3ccc4c(/C=C/c5ccncc5)n[nH]c4c3)cc2C(F)(F)F)CC1	-2.70
CN1CCN(Cc2ccc(NC(=O)CCSc3ccc4c(-c5cccnc5)n[nH]c4c3)cc2C(F)(F)F)CC1	-2.05

Can you give me log10 GI50 at 72 h for all of these, one by one?
1. Cc1nc(NC(=O)c2ccc(CN3CCN(C)CC3)cc2)sc1-c1ccc2c(/C=C/c3ccccn3)n[nH]c2c1
2. Cc1nc(NC(=O)CN2CCN(C)CC2)sc1-c1ccc2c(-c3cccc(F)c3)n[nH]c2c1
3. Cc1nc(NC(=O)CN2CCN(C)CC2)sc1-c1ccc2c(-c3cccnc3)n[nH]c2c1

-1.92
0.23
0.42

###

# Assay: Apparent clearance in Sprague-Dawley rat at 10 mg/kg, po
# Type: ADME, organism-based
# Protocol Conditions: in vivo, read-out: CLz/F (converted)
Measured Property: CL/F
Express the reported value numerically, then name its unit.

Provide only the value of recorded CL/F for "Cc1nc(NC(=O)CN2CCN(C)CC2)sc1-c1ccc2c(/C=C/c3ccccn3)n[nH]c2c1" 170 mL/min/kg

###

# Target Or Test System: High affinity nerve growth factor receptor (Homo sapiens, UniProt P04629)
# Assay: Inhibition of wild type TEL fused TRKA (unknown origin) transfected in mouse BAF3 cells assessed as growth inhibition after 72 hrs by CCK8 assay
# Type: cell-based
# Sequence (P04629 33-796 limits assumed): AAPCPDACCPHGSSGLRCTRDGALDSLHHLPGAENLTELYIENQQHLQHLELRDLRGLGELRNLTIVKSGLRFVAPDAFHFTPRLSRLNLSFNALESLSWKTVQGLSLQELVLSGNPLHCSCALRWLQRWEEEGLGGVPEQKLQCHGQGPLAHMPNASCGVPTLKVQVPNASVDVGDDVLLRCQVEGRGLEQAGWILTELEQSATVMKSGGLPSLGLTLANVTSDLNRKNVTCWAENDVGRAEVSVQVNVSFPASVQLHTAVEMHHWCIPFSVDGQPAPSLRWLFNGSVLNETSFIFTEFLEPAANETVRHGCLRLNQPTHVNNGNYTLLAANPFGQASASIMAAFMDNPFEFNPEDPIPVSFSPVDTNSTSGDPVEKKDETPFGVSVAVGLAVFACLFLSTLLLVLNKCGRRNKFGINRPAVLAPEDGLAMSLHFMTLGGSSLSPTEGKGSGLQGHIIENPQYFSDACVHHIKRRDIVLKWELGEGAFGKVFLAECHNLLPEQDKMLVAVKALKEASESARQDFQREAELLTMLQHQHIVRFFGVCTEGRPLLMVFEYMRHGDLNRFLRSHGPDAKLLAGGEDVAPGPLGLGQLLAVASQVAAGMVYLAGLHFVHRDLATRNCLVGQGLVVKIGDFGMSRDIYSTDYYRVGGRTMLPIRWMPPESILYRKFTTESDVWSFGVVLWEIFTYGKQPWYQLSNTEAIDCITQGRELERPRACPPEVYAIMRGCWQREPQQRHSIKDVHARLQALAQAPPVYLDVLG
For each record, write down the corresponding GI50.
One number for each entry, in nM.

Answered cases to consult:
CN1CCN(Cc2ccc(C(=O)NCCCSc3ccc4c(/C=C/c5ccccn5)n[nH]c4c3)cc2C(F)(F)F)CC1	370
Cc1nc(NC(=O)C2CCNCC2)sc1-c1ccc2c(/C=C/c3ccccn3)n[nH]c2c1	145
Cc1nc(NC(=O)Cc2cccc(C(F)(F)F)c2)sc1-c1ccc2c(/C=C/c3ccccn3)n[nH]c2c1	2
Cc1nc(NC(=O)CC2CCNCC2)sc1-c1ccc2c(/C=C/c3ccccn3)n[nH]c2c1	116

Turning to the following compound.
Assign GI50 to the following record: "COCCOCC(=O)Nc1nc(C)c(-c2ccc3c(/C=C/c4ccccn4)n[nH]c3c2)s1" 35

###

# Target Or Test System: VEGFR2 (vascular endothelial growth factor receptor 2), wild type, TEL fusion (Homo sapiens)
# Assay: Inhibition of wild type TEL fused VEGFR2 (unknown origin) transfected in mouse BAF3 cells assessed as growth inhibition after 72 hrs by CCK8 assay
# Format: cell-based
# Protocol Conditions: mouse BaF3 cells transfected with wild type TEL-fused VEGFR2
Answer each item with its documented GI50 at 72 h.
Answers are plain numbers, in nM.

Parameters: items (list). Returns: GI50 at 72 h for each item.
1. Cc1nc(NC(=O)C(N)Cc2ccccc2)sc1-c1ccc2c(/C=C/c3ccccn3)n[nH]c2c1 (centres undefined)
2. COCCOCC(=O)Nc1nc(C)c(-c2ccc3c(/C=C/c4ccccn4)n[nH]c3c2)s1
3. CN1CCN(Cc2ccc(NC(=O)CC(=O)Nc3ccc4c(/C=C/c5ccccn5)n[nH]c4c3)cc2C(F)(F)F)CC1
4. Cc1nc(NC(=O)CN2CCN(C)CC2)sc1-c1ccc2c(-c3ccn(C)n3)n[nH]c2c1

1: 97; 2: 1780; 3: 4; 4: 351

For each entry beneath this line, provide reported GI50 at 72 h.
1. Cc1nc(NC(=O)Cc2cccc(Cl)c2)sc1-c1ccc2c(/C=C/c3ccccn3)n[nH]c2c1
2. Cc1nc(NC(=O)C2CCN(C)CC2)sc1-c1ccc2c(/C=C/c3ccccn3)n[nH]c2c1
3. CN1CCN(Cc2ccc(C(=O)NCCSc3ccc4c(/C=C/c5ccccn5)n[nH]c4c3)cc2C(F)(F)F)CC1
4. Cc1nc(NC(=O)Nc2cccc(C(F)(F)F)c2)sc1-c1ccc2c(/C=C/c3ccccn3)n[nH]c2c1
5. Cc1nc(NC(=O)CC2CCNCC2)sc1-c1ccc2c(/C=C/c3ccccn3)n[nH]c2c1
6. CN1CCN(Cc2ccc(NC(=O)CCSc3ccc4c(/C=C/c5ccccn5)n[nH]c4c3)cc2C(F)(F)F)CC1
7. CN1CCN(Cc2ccc(NC(=O)Nc3cccc(Sc4ccc5c(/C=C/c6ccccn6)n[nH]c5c4)c3)cc2C(F)(F)F)CC1
8. Cc1nc(NC(=O)CN2CCN(C)CC2)sc1-c1ccc2c(/C=C/c3ccccn3)n[nH]c2c1

[10, 2040, 41, 4, 982, 2, 15, 1180]

Hey, quick one: what's GI50 at 72 h for each of these?
1. CN1CCN(Cc2ccc(NC(=O)NCCSc3ccc4c(/C=C/c5ccccn5)n[nH]c4c3)cc2C(F)(F)F)CC1
2. Cc1nc(NC(=O)C2CCNCC2)sc1-c1ccc2c(/C=C/c3ccccn3)n[nH]c2c1

1. 42
2. 3050

###

Exercise: for every item that follows, state its recorded GI50 at 72 h.
# Assay: Antiproliferative activity in mouse BAF3 cells assessed as growth inhibition after 72 hrs by CCK8 assay
# Type: cell-based
Numbers only, in µM.

Here is how some compounds turned out for GI50 at 72 h.
CN1CCN(Cc2ccc(NC(=O)CCSc3ccc4c(/C=C/c5ccncc5)n[nH]c4c3)cc2C(F)(F)F)CC1	0.543
Cc1nc(NC(=O)CC2CCCNC2)sc1-c1ccc2c(/C=C/c3ccccn3)n[nH]c2c1 (stereo unspecified)	8.35
Cc1nc(NC(=O)Nc2cccc(C(F)(F)F)c2)sc1-c1ccc2c(/C=C/c3ccccn3)n[nH]c2c1	0.105

Let us move to another entry and its GI50 at 72 h.
# return recorded GI50 at 72 h for entry "Cc1nc(NC(=O)CN2CCN(CCO)CC2)sc1-c1ccc2c(/C=C/c3ccccn3)n[nH]c2c1" 1.02

###

For each entry below, report its GI50 value.
# Target Or Test System: High affinity nerve growth factor receptor (Homo sapiens, UniProt P04629)
# Assay: Inhibition of wild type TEL fused TRKA (unknown origin) transfected in mouse BAF3 cells assessed as growth inhibition after 72 hrs by CCK8 assay
# Format: cell-based

Batch request: GI50 for each of the following compounds.
1. Cc1nc(NC(=O)CN2CCN(C)CC2)sc1-c1ccc2c(-c3cnc(N)nc3)n[nH]c2c1
2. Cc1nc(NC(=O)CN2CCN(C)CC2)sc1-c1ccc2c(-c3cccc(F)c3)n[nH]c2c1
3. Cc1nc(NC(=O)Cc2cccc3ccccc23)sc1-c1ccc2c(/C=C/c3ccccn3)n[nH]c2c1

1. 752 nM
2. > 10000 nM
3. 33 nM

Provide GI50, tested on High affinity nerve growth factor receptor (Homo sapiens, UniProt P04629), for "Cc1nc(NC(=O)Nc2cccc(C(F)(F)F)c2)sc1-c1ccc2c(/C=C/c3ccccn3)n[nH]c2c1" . 3 nM

###

Kindly supply the reported GI50 values for the records listed here.
# Target Or Test System: High affinity nerve growth factor receptor (Homo sapiens)
# Assay: Inhibition of wild type TEL fused TRKA (unknown origin) transfected in mouse BAF3 cells assessed as growth inhibition after 72 hrs by CCK8 assay
# Format: cell-based
Answers are plain numbers, in nM.

Some compounds with recorded GI50:
CC(=O)Nc1nc(C)c(-c2ccc3c(/C=C/c4ccccn4)n[nH]c3c2)s1	4310
CN1CCN(Cc2ccc(NC(=O)NCCSc3ccc4c(/C=C/c5ccccn5)n[nH]c4c3)cc2C(F)(F)F)CC1	646
Cc1nc(NC(=O)CN2CCN(C)CC2)sc1-c1ccc2c(-c3cncc(F)c3)n[nH]c2c1	54

Give one value of GI50 per listed compound.
1. CN1CCN(Cc2ccc(C(=O)Nc3cccc(Sc4ccc5c(/C=C/c6ccccn6)n[nH]c5c4)c3)cc2C(F)(F)F)CC1
2. Cc1nc(NC(=O)CN2CCN(CCO)CC2)sc1-c1ccc2c(/C=C/c3ccccn3)n[nH]c2c1
3. CN1CCN(Cc2ccc(NC(=O)CC(=O)Nc3ccc4c(/C=C/c5ccccn5)n[nH]c4c3)cc2C(F)(F)F)CC1
4. Cc1nc(NC(=O)C(C)C)sc1-c1ccc2c(/C=C/c3ccccn3)n[nH]c2c1
5. COc1ccc(CC(=O)Nc2nc(C)c(-c3ccc4c(/C=C/c5ccccn5)n[nH]c4c3)s2)cc1OC

[920, 18, 248, 251, 40]

Values were extracted from ChEMBL document CHEMBL4765452.
